src = PubChem BioAssay (NCI)

assay: NCI Yeast Anticancer Drug Screen. Data for the wt1 strain (AID 149);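 note: 0% = growth of vehicle-treated wt1 cultures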; conditions: S. cerevisiae wt1 strain (SPY 50644) growth inhibition; at 11.0 µM; hits give high values
About 79,000 compounds went through this panel and 15% of them were active in at least one assay; those are over-represented in the sample as a whole.
property: growth inhibition (%)
Give the number; % is assumed, so skip it.

Cc1ccc2c(ccc(/C=C/c3ccc(O)c4ncccc34)[n+]2C)c1
85
O=[N+]([O-])c1c(/C=N/Nc2ccccc2)oc(-c2ccc3c(c2)OCO3)c1-c1ccc2c(c1)OCO2
-1
N#C/C(=C1C=C(Br)/C(=N\O)C=C\1Cl)c1cccc2ccccc12
84
Nc1nc(N)c2cc(Sc3ccc4ccccc4c3)ccc2n1
44
NC(N)=NCCCS(=O)(=O)Nc1ccc(Nc2c3ccccc3nc3cc([N+](=O)[O-])ccc23)cc1
-26

# growth inhibition (compound: `CC(=O)c1cc2c(Cl)cc(Cl)cc2oc1=O` ) is -38

# growth inhibition (compound: CC(=O)C1=C(O)C2(C)c3c(O)c(C)c(O)c(C(C)=O)c3OC2(Sc2ccccc2)CC1=O (centres undefined) ) is 55

# growth inhibition (compound: Nc1nc2c(c(=O)[nH]1)NC(CCNc1ccc(C(=O)O)cc1)CN2 (centres undefined) ) is 2

# growth inhibition (compound: `COC(=O)c1ccc2c(c1)Cc1ccccc1-2` ) is -3

* * *

test: NCI Yeast Anticancer Drug Screen. Data for the wt2 strain (AID 169);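 note: 0% = growth of vehicle-treated yeast cultures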; details: S. cerevisiae wt2 strain growth inhibition; at 33.0 µM
The panel holds about 79,000 compounds, 15% with a hit somewhere; the sample as a whole holds those more often. Calls of active or inactive are those of the source. Cut-off read from the data, not from the text of the source: active = growth inhibition above about 70%; inactive = the rest.
Give your call using only these classes: 1 for active, 0 for inactive

# example entries with known answers
O=C1NC(c2c(Cl)cccc2Cl)Nc2ccccc21 (configuration not stated)
0
CCOC(=O)C(NC(=O)CC)(N1CCN(c2cc3c(cc2F)c(=O)c(C(=O)O)cn3C2CC2)CC1)C(F)(F)F (configuration not stated)
0
OCCNCCOc1ccc(/C(=C(/Cl)c2ccccc2)c2ccccc2)cc1
1

Problem: Identify the outcome logged in this assay for the compound shown: `CSc1s[s+]c(SC)c1-c1ccccc1`
Solution: 0

Problem: Identify the outcome logged in this assay for the compound shown: `COC(=O)CSc1nnc(CSc2ccc(Cl)cc2)n1-c1ccccc1`
Solution: 0

Problem: Identify the outcome logged in this assay for the compound shown: `CC(C)(O)c1ccccc1C(c1ccccc1)c1ccccc1`
Solution: 0

Problem: Identify the outcome logged in this assay for the compound shown: `Cn1ncc2cc3c(Nc4ccc(Cl)cc4)cccc3nc21`
Solution: 0

* * *

assay: NCI Yeast Anticancer Drug Screen. Data for the wt2 strain (AID 169);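 note: 0% = growth of vehicle-treated yeast cultures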; conditions: S. cerevisiae wt2 strain growth inhibition; at 100.0 µM
The panel holds about 79,000 compounds, 15% with a hit somewhere; the sample as a whole holds those more often. Activity calls are given as the source filed them. No stated cut-off is given here; in the data, active means growth inhibition above about 70%; inactive means the rest.
Give your call using only these classes: label 1 = active, label 0 = inactive

O=C(N/N=C\c1c(Cl)cccc1Cl)N/N=C/c1c(Cl)cccc1Cl
label 0
O=c1[nH]c2ccccc2c2nc3ccccc3n12
label 0

Consider now this further compound.
Problem: Identify the outcome logged in this assay for the compound shown: `Nc1cc(F)cc2c1-c1ccc(F)cc1C2`
Solution: label 1

* * *

Recorded growth inhibition for the following compounds
test: NCI Yeast Anticancer Drug Screen. Data for the rad50EPP+ strain (AID 151);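 note: 0% = growth of vehicle-treated control cultures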; conditions: S. cerevisiae rad50 mutant strain, at 1.2 µM, hits give high values
This is part of a sample that, as a whole, favours compounds with a hit. Of some 79,000 tested, about 15% had one in any assay.
Give the number; % is assumed, so skip it.

Please review the following examples before continuing.
CCCCCC(=O)c1ccc(O)cc1O
15
O=Nn1c2ccccc2c2cc([N+](=O)[O-])ccc21
8
O=Nc1ccc(Nc2ccccc2)cc1
-14
CC(=O)C1(O)Cc2c(O)c3c(c(O)c2C(OC2CC(N)C(O)C(C)O2)C1)C(=O)c1ccccc1C3=O (stereo unspecified)
55
S=c1[nH]nc(-c2ccc(Cl)cc2)s1
-1

Then there is this compound:
# growth inhibition (compound: `CCOC(=O)Nc1ccc2c(c1)Cc1ccccc1-2` ) is -6

* * *

assay: NCI Yeast Anticancer Drug Screen. Data for the rad50EPP+ strain (AID 151);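 note: 0% = growth of vehicle-treated control cultures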; details: S. cerevisiae rad50 mutant strain, at 11.0 µM, hits give high values
Compounds without any hit were thinned out: in the full panel of roughly 79,000, 15% have a hit.
property: growth inhibition (%)
Give the number; % is assumed, so skip it.

Please review the following examples before continuing.
O=NN(CCCl)C(=O)NC1CCCCC1
45
N#C/C(=C1C=C(Br)/C(=N\O)C=C\1Cl)c1cccc2ccccc12
63

# growth inhibition (compound: `CSc1s[s+]c(SC)c1-c1ccccc1` ) is 61

# growth inhibition (compound: `Cc1c2cc[n+](CCN3CCCCC3)cc2c(C)c2c1[nH]c1ccc(O)cc12` ) is 62

* * *

assay: NCI Yeast Anticancer Drug Screen. Data for the mec2-1 strain (AID 157); conditions: S. cerevisiae mec2-1 strain, at 1.2 µM, hits give high values
The panel holds about 79,000 compounds, 15% with a hit somewhere; the sample as a whole holds those more often.
property: growth inhibition (%)
Give the number; % is assumed, so skip it.

Cc1nc2c(ncn2CCO)c(=O)[nH]1
15
c1ccc(N2N=C3N(c4ccccc4)C2N3c2ccccc2)cc1
-19
CC(=O)C1=C(C)O/C(=C/c2cccc(Cl)c2)C1=O
-9

# growth inhibition (compound: `Cn1c2nc3ccccc3c-2nc2ccccc21` ) is 10

# growth inhibition (compound: `Cc1ccc2c(ccc(/C=C/c3ccc(O)c4ncccc34)[n+]2C)c1` ) is 10

# growth inhibition (compound: `CC(=O)O[C@H]1C(=O)[C@@]2(C)[C@H]([C@H](OC(=O)c3ccccc3)[C@]3(O)C[C@H](OC(=O)[C@H](O)[C@@H](NC(=O)c4ccccc4)c4ccccc4)C(C)=C1C3(C)C)[C@]1(OC(C)=O)CO[C@@H]1C[C@@H]2O` ) is -5

# growth inhibition (compound: `Cc1ccc(Nc2c3c(c(C#N)c4nc5ccccc5n24)CCCC3)cc1` ) is -15

# growth inhibition (compound: `N#CC(=S)Nc1cccc(Cl)c1` ) is 28

# growth inhibition (compound: `CCCCC(=O)c1c(O)nc2sccn2c1=O` ) is 22

# growth inhibition (compound: `O=C(/C=C\c1ccc([N+](=O)[O-])o1)Nc1ccc(Cl)cc1` ) is 4

# growth inhibition (compound: `O=Cc1coc2ccccc2c1=O` ) is -7

# growth inhibition (compound: `CCC(=O)Oc1ccc(/C=N/NC(N)=S)nc1` ) is -2

# growth inhibition (compound: `COc1ccc2c(c1)[nH]c1c(/C=C/c3ccccc3)nccc12` ) is -9

# growth inhibition (compound: `NNC(=S)Nc1cccc2ccccc12` ) is -16

# growth inhibition (compound: `COC(=O)c1cccc(C)c1C(=O)c1c(C)cc(C)cc1C` ) is -3

* * *

experiment: NCI Yeast Anticancer Drug Screen. Data for the mlh1 strain (AID 171);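 note: 0% = growth of vehicle-treated control cultures of the same strain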; details: S. cerevisiae mlh1 strain growth inhibition; at 11.0 µM
About 79,000 compounds went through this panel and 15% of them were active in at least one assay; those are over-represented in the sample as a whole. Activity calls are given as the source filed them. Rule as the data show it: active = growth inhibition above about 70%; inactive = the rest.
Give your call using only these classes: Y (active), N (inactive)

# example entries with known answers
O=C1C=CC(=O)N1c1ccc(N2C(=O)C=CC2=O)cc1
Y
CC(=O)OCC1OC(O[C@H]2C=C[C@@H](C(=O)OCc3ccccc3)n3c(=O)n(-c4ccccc4)c(=O)n32)C(OC(C)=O)C(OC(C)=O)C1OC(C)=O (stereo partly specified)
N
C=Cc1cnc([N+](=O)[O-])n1C
N

Problem: Identify the outcome logged in this assay for the compound shown: CC1=CCC(C(C)(C)c2ccc(O)cc2)CC1 (stereo unspecified)
Solution: N

Problem: Identify the outcome logged in this assay for the compound shown: `COc1ccc(SCc2cc(OC)ccc2OC)cc1`
Solution: N

Problem: Identify the outcome logged in this assay for the compound shown: `NNC(=S)Nc1cccc2ccccc12`
Solution: N

Problem: Identify the outcome logged in this assay for the compound shown: `NCc1c(O)ccc2ccccc12`
Solution: N

Problem: Identify the outcome logged in this assay for the compound shown: `O=C1c2ccccc2C(=O)c2cc(S(=O)(=O)Nc3ccccc3)ccc21`
Solution: N

Problem: Identify the outcome logged in this assay for the compound shown: `C=C(CCCO)[C@@H]1CC[C@@](C)(O)[C@H]1C`
Solution: N

Problem: Identify the outcome logged in this assay for the compound shown: `O=C1c2cccc3cc([N+](=O)[O-])cc(c23)C(=O)N1CCN1CCCC1`
Solution: N

Problem: Identify the outcome logged in this assay for the compound shown: `O=C1C=CC(=O)N1c1ccc2c(c1)OCO2`
Solution: Y

* * *

assay: NCI Yeast Anticancer Drug Screen. Data for the wt2 strain (AID 169);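 note: 0% = growth of vehicle-treated yeast cultures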; conditions: S. cerevisiae wt2 strain growth inhibition; at 1.2 µM; hits give high values
Compounds without any hit were thinned out: in the full panel of roughly 79,000, 15% have a hit. Calls of active or inactive are those of the source. No stated cut-off is given here; in the data, active means growth inhibition above about 70%; inactive means the rest.
property: growth inhibition

COC(=O)/C=C1/OC(c2ccc(Br)cc2)=C(Br)C1=O
-25% (inactive)
Nc1cc(F)cc2c1-c1ccc(F)cc1C2
-3% (inactive)
CCC(C)(c1ccc(O)c(C)c1)c1ccc(O)c(C)c1
-33% (inactive)
CC(=O)c1cc2c(Cl)cc(Cl)cc2oc1=O
-22% (inactive)
NCc1c(O)ccc2ccccc12
6% (inactive)
CC[C@@]1(OC(=O)CCC(=O)O)C(=O)OCc2c1cc1n(c2=O)Cc2cc3ccccc3nc2-1
-13% (inactive)

# growth inhibition (compound: `COC(=O)c1ccc2c(c1)Cc1ccccc1-2` ) is -3% (inactive)

# growth inhibition (compound: `CC(=O)CC(=O)/C=C/c1cccs1` ) is -17% (inactive)
